# Test system: MDA-MB-231 human breast carcinoma cells
# Assay protocol: MTT cell viability assay, MDA-MB-231
# Type: cell-based
# Particulars: 72 h incubation, read-out: IC50 after a 72 h incubation, MDA-MB-231
Metric name: IC50 (µM)
Write it as a number; the unit µM goes unstated.

Data request: Please look up its IC50: N.N.[Cl][Pt][Cl] [Cisplatin, reference compound]
Data returned: 39

###

# System: A2780 ovarian carcinoma cells
# Assay protocol: MTT cell viability assay, A2780
# Type: cell-based, human
# Particulars: 72 h incubation, read-out: IC50 after a 72 h incubation, A2780
Metric name: pIC50
Scale for pIC50: -log10 of concentration given in mol/L; no unit attached.

Data request: Please look up its pIC50: N.N.[Cl][Pt][Cl] [Cisplatin, reference compound]
Data returned: 5.70
